This collection of values is drawn from ChEMBL document CHEMBL5236606.

experiment: Clearance in Sprague-Dawley rat at 1 mg/kg, iv by LC-MS/MS analysis; type: ADME, organism-based; conditions: in vivo
Each entry below lists one item and its recorded clearance value.
assay-readout: clearance

>>> recorded_result("C=C(C)[C@@H]1CC[C@]2(NCCC3(O)COC3)CC[C@]3(C)[C@H](CC[C@@H]4[C@@]5(C)CC=C(C6=CC[C@](CF)(C(=O)O)CC6)C(C)(C)[C@@H]5CC[C@]43C)[C@@H]12")
"6.5 mL/min/kg"
>>> recorded_result("C=C(C)[C@@H]1CC[C@]2(NCCN3CCS(=O)(=O)CC3)CC[C@]3(C)[C@H](CC[C@@H]4[C@@]5(C)CC=C(C6=CC[C@@](CF)(C(=O)O)CC6)C(C)(C)[C@@H]5CC[C@]43C)[C@@H]12")
"6.5 mL/min/kg"
>>> recorded_result("C=C(C)[C@@H]1CC[C@]2(NCC[C@]3(O)CC[C@@H](S(C)(=O)=O)CC3)CC[C@]3(C)[C@H](CC[C@@H]4[C@@]5(C)CC=C(C6=CC[C@](CF)(C(=O)O)CC6)C(C)(C)[C@@H]5CC[C@]43C)[C@@H]12")
"3.5 mL/min/kg"
>>> recorded_result("C=C(C)[C@@H]1CC[C@]2(NCC[C@]3(O)CC[C@](C)(O)CC3)CC[C@]3(C)[C@H](CC[C@@H]4[C@@]5(C)CC=C(C6=CC[C@](CF)(C(=O)O)CC6)C(C)(C)[C@@H]5CC[C@]43C)[C@@H]12")
"3.7 mL/min/kg"

---

assay: Cytotoxicity against human MT2 cells assessed as reduction in cell viability; format: toxicity, cell-based
assay-readout: CC50 (µM)

>>> recorded_result("C=C(C)[C@@H]1CC[C@]2(NCCC3CCOCC3)CC[C@]3(C)[C@H](CC[C@@H]4[C@@]5(C)CC=C(C6=CC[C@](CF)(C(=O)O)CC6)C(C)(C)[C@@H]5CC[C@]43C)[C@@H]12")
13
>>> recorded_result("C=C(C)[C@@H]1CC[C@]2(NCC[C@]3(O)CC[C@@H](S(C)(=O)=O)CC3)CC[C@]3(C)[C@H](CC[C@@H]4[C@@]5(C)CC=C(C6=CC[C@](CF)(C(=O)O)CC6)C(C)(C)[C@@H]5CC[C@]43C)[C@@H]12")
21
>>> recorded_result("C=C(C)[C@@H]1CC[C@]2(NCCN3CCS(=O)(=O)CC3)CC[C@]3(C)[C@H](CC[C@@H]4[C@@]5(C)CC=C(c6ccc(C(=O)O)cc6)C(C)(C)[C@@H]5CC[C@]43C)[C@@H]12 [BMS-955176]")
13
>>> recorded_result("C=C(C)[C@@H]1CC[C@]2(NCCC3(O)CCOCC3)CC[C@]3(C)[C@H](CC[C@@H]4[C@@]5(C)CC=C(C6=CC[C@](CF)(C(=O)O)CC6)C(C)(C)[C@@H]5CC[C@]43C)[C@@H]12")
9.5
>>> recorded_result("C=C(C)[C@@H]1CC[C@]2(NCCC3(O)CCN(C(C)=O)CC3)CC[C@]3(C)[C@H](CC[C@@H]4[C@@]5(C)CC=C(C6=CC[C@](CF)(C(=O)O)CC6)C(C)(C)[C@@H]5CC[C@]43C)[C@@H]12")
14
>>> recorded_result("C=C(C)[C@@H]1CC[C@]2(NCCC(C)C)CC[C@]3(C)[C@H](CC[C@@H]4[C@@]5(C)CC=C(C6=CC[C@](CF)(C(=O)O)CC6)C(C)(C)[C@@H]5CC[C@]43C)[C@@H]12")
16
>>> recorded_result("C=C(C)[C@@H]1CC[C@]2(NCC[C@]3(O)CC[C@@](C)(O)CC3)CC[C@]3(C)[C@H](CC[C@@H]4[C@@]5(C)CC=C(C6=CC[C@](CF)(C(=O)O)CC6)C(C)(C)[C@@H]5CC[C@]43C)[C@@H]12")
18
>>> recorded_result("C=C(C)[C@@H]1CC[C@]2(NCCC(C)(C)O)CC[C@]3(C)[C@H](CC[C@@H]4[C@@]5(C)CC=C(C6=CC[C@](CF)(C(=O)O)CC6)C(C)(C)[C@@H]5CC[C@]43C)[C@@H]12")
8.3
>>> recorded_result("C=C(C)[C@@H]1CC[C@]2(NCCN3CCS(=O)(=O)CC3)CC[C@]3(C)[C@H](CC[C@@H]4[C@@]5(C)CC=C(C6=CC[C@@](CF)(C(=O)O)CC6)C(C)(C)[C@@H]5CC[C@]43C)[C@@H]12")
15.6
